System: C. krusei
Assay: Antifungal Activity Assay (broth microtiter MIC), C. krusei
Type: cell-based, Candida krusei
Settings: Pichia kudriavzevii, ATCC6258, 48 h, Table 3b (additional results); ATCC 6258; 3 replicates; MIC recorded at 48 h; read-out: MIC, C. krusei ATCC 6258
Overview of recorded MIC for various molecules

Q: Look up MIC for this molecule: COCCO[C@@H](Cn1c(=O)n(C(C)(C)C(=O)OC2CCC2)c(=O)c2c(C)c(-n3nccn3)sc21)c1cc(F)ccc1OC
Result: 2.01 to 4 µg/mL

Q: Please give the result for COc1ccc(F)cc1[C@H](Cn1c(=O)n(C(C)(C)C(=O)O)c(=O)c2c(C)c(-n3nccn3)sc21)OCC(C)(C)C#N too.
Result: > 4.01 µg/mL

Q: Follow-up item: CCc1ccc(F)cc1[C@@H](Cn1c(=O)n(C(C)(C)C(=O)NC(C)C)c(=O)c2c(C)c(-n3nccn3)sc21)OC[C@H](C)C#N
Result: > 4.01 µg/mL

Q: Input COc1ccc(F)cc1[C@H](Cn1c(=O)n(C(C)(C)C(=O)NC(C)C)c(=O)c2c(C)c(-n3nccn3)sc21)OCCOC(=O)C(C)C
Result: 0.25 to 1 µg/mL

Q: Again, but for COc1ccc(F)cc1[C@H](Cn1c(=O)n([C@H](C)C(=O)N2CCCC2)c(=O)c2c(C)c(-n3nccn3)sc21)OCC(C)(C)O
Result: 2.01 to 4 µg/mL

Q: Similarly, COc1ccccc1[C@@H](O)Cn1c(=O)n([C@@H](C)C(=O)N(C)C(C)C)c(=O)c2c(C)c(-n3nccn3)sc21 ?
Result: 2.01 to 4 µg/mL

This collection of values is drawn from patent US10800791B2.
